Origin of the recorded values: paper PMC7265341

experimental.target: CDK1/Cyclin E1 (Homo sapiens)
Sequence (P06493 whole entry): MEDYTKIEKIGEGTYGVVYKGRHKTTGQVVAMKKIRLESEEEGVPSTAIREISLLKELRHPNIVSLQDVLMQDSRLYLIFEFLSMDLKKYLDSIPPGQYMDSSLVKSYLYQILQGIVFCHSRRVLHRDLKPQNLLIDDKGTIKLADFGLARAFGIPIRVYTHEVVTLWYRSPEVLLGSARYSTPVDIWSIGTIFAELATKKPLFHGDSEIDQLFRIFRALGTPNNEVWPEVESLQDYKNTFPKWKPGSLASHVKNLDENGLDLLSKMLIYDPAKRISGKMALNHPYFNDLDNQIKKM
Sequence (P24864 whole entry partner): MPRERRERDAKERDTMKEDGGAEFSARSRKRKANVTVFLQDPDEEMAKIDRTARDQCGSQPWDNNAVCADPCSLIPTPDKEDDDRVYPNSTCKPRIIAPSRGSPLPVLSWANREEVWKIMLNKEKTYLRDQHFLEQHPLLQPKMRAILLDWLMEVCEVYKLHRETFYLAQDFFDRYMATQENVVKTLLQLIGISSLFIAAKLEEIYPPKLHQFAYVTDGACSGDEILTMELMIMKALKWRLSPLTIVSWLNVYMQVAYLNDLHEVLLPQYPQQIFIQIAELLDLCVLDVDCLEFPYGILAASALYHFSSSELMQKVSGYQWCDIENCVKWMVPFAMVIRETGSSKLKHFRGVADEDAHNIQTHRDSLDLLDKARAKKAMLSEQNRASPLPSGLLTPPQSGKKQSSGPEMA
run.description: NanoBRET live-cell target engagement, CDK1-NanoLuc/Cyclin E1 in HEK-293
Type: binding
settings: 10µM; independent experiment 1
For each of the compounds below, state its CDK1/E1 Inhibition at 10µM (%).
One number for each entry, in %.

Observe how each entry below is paired with its result.
CN(C)C/C=C/C(=O)Nc1ccc(C(=O)Nc2cccc(Nc3ncc(Cl)c(-c4c[nH]c5ccccc45)n3)c2)cc1    87.2
O=C1NCCc2[nH]c(-c3ccncc3)cc21    21.6
Cc1c(Br)c(Br)c2c3c1nc(N1CCNCC1)n3CCC2.Cl [SEL 120-34A]    21.0

Input: // returns reported CDK1/E1 Inhibition at 10µM (%) for input O=C1NC(=NCc2cccs2)S/C1=C\c1ccc2ncccc2c1
Output: 78.1
